B1: Gamma-crystallin S, residues 96 to 176; numbered along this chain, P22914 (parent)
chain: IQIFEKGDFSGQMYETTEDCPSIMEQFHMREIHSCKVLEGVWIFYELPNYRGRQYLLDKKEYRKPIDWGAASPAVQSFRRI

- Variants of: B1
- Assay: abundance fitness (aPCA) (normalised: wild type 0, dead -1); higher = more abundant; growth selection in yeast, the domain comes from the species named
- Condition details: Homo sapiens
Provide the reported abundance fitness of each item.
Number only, please.

Challenge: I have this variant here, `K36P` , and I need its recorded abundance fitness.
Response given: -1.19

Challenge: Would you mind telling me what abundance fitness value was observed for `E5C` ?
Response given: -0.022

Challenge: I'd like to know its abundance fitness. The variant in question is `I23K`
Response given: -0.588

Challenge: # get_value(readout='abundance fitness', item= `T16H` )
Response given: -0.003

Challenge: I would be grateful if you could share the reported abundance fitness for `N49L` .
Response given: -0.063

Challenge: Requested field: abundance fitness. Item: `E15P`
Response given: -0.038

Challenge: // abundance fitness lookup, key: `S10R`
Response given: -0.018

Challenge: What measured abundance fitness goes with `W42Y` ?
Response given: 0.046

Challenge: Which abundance fitness is listed for `G69E` ?
Response given: 0.006
